target: Cathepsin D (Cat D) (Homo sapiens (Human), UniProt P07339); assay: In vitro enzymatic Cathepsin D (Cat D) FRET assay; format: biochemical; conditions: average; read-out: CatD IC50
Sequence (P07339 65-412, species assumed): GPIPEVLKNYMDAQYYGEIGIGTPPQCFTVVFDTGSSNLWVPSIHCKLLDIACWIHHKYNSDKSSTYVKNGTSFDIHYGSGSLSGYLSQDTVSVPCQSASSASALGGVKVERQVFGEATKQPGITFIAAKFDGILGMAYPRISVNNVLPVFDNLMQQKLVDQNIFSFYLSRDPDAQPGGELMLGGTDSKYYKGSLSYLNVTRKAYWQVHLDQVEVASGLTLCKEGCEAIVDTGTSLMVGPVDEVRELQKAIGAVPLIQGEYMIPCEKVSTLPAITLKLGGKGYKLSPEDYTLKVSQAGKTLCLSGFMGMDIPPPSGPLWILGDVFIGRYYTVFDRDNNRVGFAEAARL
pIC50: −log10 of the molar value.
endpoint.name: pIC50

In the examples that follow, each entry is paired with its recorded pIC50.
>  <compound>
C[C@@]1(c2cc(NC(=O)c3ccc(Cl)cn3)cc(Cl)c2F)C[C@@H](C(F)(F)F)OC(N)=N1 [Example 207]

>  <endpoint.name>
pIC50

>  <number>
3.41

$$$$
>  <compound>
COc1cccnc1Nc1cc(F)c(F)c([C@]2(C)C[C@@H](C(F)(F)F)OC(N)=N2)c1 [Example 231]

>  <endpoint.name>
pIC50

>  <number>
3.55

$$$$
>  <compound>
C[C@@]1(c2cc(NC(=O)c3ccc(Br)cn3)cc(F)c2F)C[C@@H](C(F)(F)F)OC(N)=N1 [Example 175]

>  <endpoint.name>
pIC50

>  <number>
3.37

$$$$

[A] COc1cnc(C(=O)Nc2cc(C)c(F)c([C@]3(CF)C[C@@H](C(F)(F)F)OC(N)=N3)c2)c(C)n1 [Example 217]
[B] NC1=N[C@](CF)(c2cc(C#Cc3ccc4[nH]ccc4c3)ccc2F)C[C@@H](C(F)(F)F)O1 [Example 131]
[C] NC1=N[C@](CF)(c2cc(C#Cc3cccc4cc[nH]c34)ccc2F)C[C@@H](C(F)(F)F)O1 [Example 133]
[D] C#CCOc1cnc(C(=O)Nc2cc(C)c(F)c([C@]3(CF)C[C@@H](C(F)(F)F)OC(N)=N3)c2)cn1 [Example 218]
Rank ascending by pIC50. Write the labels, ordered according to the request.
C, A, B, D

[1] NC1=N[C@](CF)(c2cc(C#Cc3ccc4cc[nH]c4c3)ccc2F)C[C@@H](C(F)(F)F)O1 [Example 132]
[2] CC#CCOc1cnc(C(=O)Nc2cc(F)c(F)c([C@]3(C)C[C@@H](C(F)(F)F)OC(N)=N3)c2)c(C)c1 [Example 188]
Rank 1 against 2 by their pIC50 values and give the higher one. Kindly give the label for the entry you pick.
2
